Cited source: patent EP4596580A1

Biological target: T1, His-human LIGHT (human)
T1 chain: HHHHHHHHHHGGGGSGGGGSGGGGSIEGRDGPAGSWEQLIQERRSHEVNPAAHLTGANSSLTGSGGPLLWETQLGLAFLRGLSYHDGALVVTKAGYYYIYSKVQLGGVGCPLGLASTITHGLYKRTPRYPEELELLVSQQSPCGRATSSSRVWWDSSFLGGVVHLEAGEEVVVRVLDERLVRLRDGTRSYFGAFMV
Assay: cell-based or functional assay
ASSAY METRIC: IC50, LTβR NF-κB luciferase reporter, free LIGHT (µg/mL)
Quick note: give the figure in µg/mL, leave out the unit.

Challenge: IC50, LTβR NF-κB luciferase reporter, free LIGHT lookup needed for hum_LT-m37-1 (antibody, human IgG4, V domains shown, humanized from LT-m37) VH: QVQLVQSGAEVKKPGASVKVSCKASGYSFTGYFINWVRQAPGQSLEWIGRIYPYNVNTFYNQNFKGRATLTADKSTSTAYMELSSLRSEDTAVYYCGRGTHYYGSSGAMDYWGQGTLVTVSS VL: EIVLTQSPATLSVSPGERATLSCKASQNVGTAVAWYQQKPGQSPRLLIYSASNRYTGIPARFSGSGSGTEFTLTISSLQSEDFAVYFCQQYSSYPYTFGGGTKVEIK , thanks.
Response given: 0.269
